Entries and their measured TGI follow.
Tested on: HOP-92 NSCLC
assay: NCI tumour cell line growth inhibition, 48 h

[
  {
    "molecule": "CCOC(=O)c1[nH]cc(C)c1-c1c[nH]c2ccccc12",
    "experimental_readout": "TGI",
    "recorded_value": "> 74.4 µM"
  },
  {
    "molecule": "O=C(NC1CCCCC1)NS(=O)(=O)c1ccc(-n2nc3c(c2-c2ccc(Cl)cc2)Cc2ccccc2-3)cc1",
    "experimental_readout": "TGI",
    "recorded_value": "25 µM"
  }
]

Now let's try a different one.
Recorded TGI of CNCCCNC1(c2cc3ccccc3s2)CCCCC1 , please.
14.8 µM

---

Test system: OVCAR-5 ovarian
assay: NCI tumour cell line growth inhibition, 48 h
# Lookup of reported GI50 keyed by entry

Answered examples (6):
[
  {
    "molecule": "C=C(C)[C@@H]1CC[C@]2(C(=O)O)CC[C@]3(C)[C@H](CC[C@@H]4[C@@]5(C)C/C(=C/c6ccc(OC)cc6)C(=O)C(C)(C)[C@@H]5CC[C@]43C)[C@@H]12",
    "recorded_value": "3.2 µM"
  },
  {
    "molecule": "CCC[CH2][Sn]1([CH2]CCC)[O]CC(CN2CCOCC2)[O]1 (centres undefined)",
    "recorded_value": "18.8 µM"
  },
  {
    "molecule": "COc1ccc2cc(Cn3cc[n+](Cc4ccc5ccccc5c4)c3)ccc2c1",
    "recorded_value": "2.7 µM"
  },
  {
    "molecule": "COc1cccc(Cn2c(-c3nonc3NC(C)=O)nc3ccccc32)c1",
    "recorded_value": "4.04 µM"
  },
  {
    "molecule": "CCn1c(-c2nonc2N)nc2cncc(C(=O)NCCNC)c21",
    "recorded_value": "0.441 µM"
  },
  {
    "molecule": "COc1nc(N)nc2c1ncn2[C@@H]1O[C@H](CO)[C@@H](O)[C@@H]1O",
    "recorded_value": "> 100 µM"
  }
]

Using the record for C=CC[C@@H]1/C=C(\C)C[C@H](C)C[C@H](OC)[C@H]2O[C@@](O)(C(=O)C(=O)N3CCCC[C@H]3C(=O)O[C@H](/C(C)=C/C3CC[C@@H](O)[C@H](OC)C3)[C@H](C)[C@@H](O)CC1=O)[C@H](C)C[C@@H]2OC (some centres undefined) , report its GI50.
17.2 µM

Same again, this time with Nc1ccc(-c2nc3ccccc3o2)cc1S
19.2 µM

CCN(CC)CCCC(Cc1ccccc1)Nc1c2ccc(Cl)cc2nc2ccc(OC)cc12 (centres undefined) ?
2.67 µM

---

Test system: CAKI-1 renal
assay: NCI tumour cell line growth inhibition, 48 h
# Lookup of reported TGI keyed by entry
Unit µM implied. Number only.

Sample records with TGI:
[
  {
    "smiles_notation": "CCN(CC)CCCCNc1ncc2cc(-c3cc(OC)cc(OC)c3)c(NC(=O)NC(C)(C)C)nc2n1",
    "units_symbol": "µM",
    "TGI": 17
  },
  {
    "smiles_notation": "COc1ccccc1/C=C/c1c(N)ncnc1Nc1cccc(Cl)c1",
    "units_symbol": "µM",
    "TGI": 58.9
  },
  {
    "smiles_notation": "N=c1n(Cc2ccccc2)c(N)cc(=O)n1Cc1ccccc1",
    "units_symbol": "µM",
    "TGI": 16.6
  },
  {
    "smiles_notation": "N#C/C(C(=S)Nc1ccccc1)=C(/N)N1CCCC1",
    "units_symbol": "µM",
    "TGI": 92.5
  },
  {
    "smiles_notation": "O=C(NCCNc1nccc(-c2c(-c3cccc(O)c3)nc3sccn23)n1)Nc1cccc(C(F)(F)F)c1",
    "units_symbol": "µM",
    "TGI": 50.5
  },
  {
    "smiles_notation": "Cc1cc(C)c2nc3nc(C)cc(C)c3c(N)c2c1",
    "units_symbol": "µM",
    "TGI": 6.12
  }
]

As a next step, examine the compound that follows.
Form entry - test system: CAKI-1 renal; read-out: TGI; compound: Cc1ccc(C(=O)C#Cc2c[nH]c(=O)[nH]c2=O)cc1
30.5

Cited source: PubChem BioAssay (NCI)
